- protocol: LFS_MB_1R medulloblastoma cell growth inhibition, synergistic combos for chromothripsis tumors, cisplatin or BGB combos (AID 1671452);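 further: cells exposed for 96 hours before readout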
- condition info: LFS_MB_1R medulloblastoma cells, measured here: combination with BGB IC40, at 0.05 µM, stronger effect = higher value
Give inhibition for every item shown.
Value expressed in %; do not type the unit.

Returns the measured inhibition for the input compound. Input: `N=c1ccn2c(n1)O[C@H]1[C@H](O)[C@@H](CO)O[C@H]12`
-18.8

Field entry: `Cc1ccc2nc(N)[nH]c(=O)c2c1Sc1ccncc1`
-4.51

Field entry: `CN1CCN(c2c(F)cc3c(=O)c(C(=O)O)cn4c3c2OCN4C)CC1`
-29.1

Field entry: `Nc1ccc2cc3ccc(N)cc3nc2c1`
-30.9

Field entry: `CN1C[C@@H]2C[C@H]1CN2c1cc2c(cc1F)c(=O)c(C(=O)O)cn2C1CC1`
-27.6

Field entry: `CN1CCN(c2c(F)cc3c(=O)c(C(=O)O)cn(CCF)c3c2F)CC1`
5.98

Field entry: `COc1c2ccoc2cc2oc(=O)ccc12`
-39.8

Field entry: `O=c1[nH]c(=O)n([C@H]2C[C@H](O)[C@@H](CO)O2)cc1C(F)(F)F`
-48.3

Field entry: COC1C(OC(N)=O)C(O)C(Oc2ccc3c(O)c(NC(=O)c4ccc(O)c(CC=C(C)C)c4)c(=O)oc3c2C)OC1(C)C (configuration not stated)
-15.8

Field entry: CC1(C(=O)O)CCC2(C)CCC3(C)C(=CC(=O)C4C5(C)CCC(OC(=O)CCC(=O)O)C(C)(C)C5CCC43C)C2C1 (configuration not stated)
-15.6

Field entry: `C[C@@H](CN1CC(=O)NC(=O)C1)N1CC(=O)NC(=O)C1`
-25.5

Field entry: `Nc1ncn([C@H]2C[C@H](O)[C@@H](CO)O2)c(=O)n1`
-12.1
